assay: Bioavailability in CD-1 mouse at 10 mg/kg, po or 1 mg/kg, iv measured upto 24 hrs by LC-MS/MS analysis; format: ADME, organism-based; settings: in vivo
Below, each entry is listed with its recorded bioavailability.
QUANTITY: bioavailability (%)

• O=S(=O)(Cc1ccccc1)Nc1c(F)cc(Oc2ncccc2-c2ccnc(N[C@@H]3CNC[C@@H](F)C3)n2)c(F)c1F = 149
• C[C@@]1(F)CNC[C@@H](Nc2nccc(-c3cccnc3Oc3cc(F)c(NS(=O)(=O)Cc4ccccc4)c(F)c3F)n2)C1 = 109
• O=S(=O)(Cc1ccccc1)Nc1c(F)cc(Oc2ncccc2-c2ccnc(N[C@@H]3CNC[C@H](CF)C3)n2)c(F)c1F = 36

====

target: Serine/threonine-protein kinase/endoribonuclease IRE1 (Homo sapiens); assay: Inhibition of IRE1alpha RNase activity (Q470 to L977 residues) (unknown origin) expressed in Sf9 cells using mini-XBP-1 stem-loop RNA as substrate measured every 2 mins interval for 50 mins by FRET assay
Sequence (O75460 whole entry, the tested form may be a part): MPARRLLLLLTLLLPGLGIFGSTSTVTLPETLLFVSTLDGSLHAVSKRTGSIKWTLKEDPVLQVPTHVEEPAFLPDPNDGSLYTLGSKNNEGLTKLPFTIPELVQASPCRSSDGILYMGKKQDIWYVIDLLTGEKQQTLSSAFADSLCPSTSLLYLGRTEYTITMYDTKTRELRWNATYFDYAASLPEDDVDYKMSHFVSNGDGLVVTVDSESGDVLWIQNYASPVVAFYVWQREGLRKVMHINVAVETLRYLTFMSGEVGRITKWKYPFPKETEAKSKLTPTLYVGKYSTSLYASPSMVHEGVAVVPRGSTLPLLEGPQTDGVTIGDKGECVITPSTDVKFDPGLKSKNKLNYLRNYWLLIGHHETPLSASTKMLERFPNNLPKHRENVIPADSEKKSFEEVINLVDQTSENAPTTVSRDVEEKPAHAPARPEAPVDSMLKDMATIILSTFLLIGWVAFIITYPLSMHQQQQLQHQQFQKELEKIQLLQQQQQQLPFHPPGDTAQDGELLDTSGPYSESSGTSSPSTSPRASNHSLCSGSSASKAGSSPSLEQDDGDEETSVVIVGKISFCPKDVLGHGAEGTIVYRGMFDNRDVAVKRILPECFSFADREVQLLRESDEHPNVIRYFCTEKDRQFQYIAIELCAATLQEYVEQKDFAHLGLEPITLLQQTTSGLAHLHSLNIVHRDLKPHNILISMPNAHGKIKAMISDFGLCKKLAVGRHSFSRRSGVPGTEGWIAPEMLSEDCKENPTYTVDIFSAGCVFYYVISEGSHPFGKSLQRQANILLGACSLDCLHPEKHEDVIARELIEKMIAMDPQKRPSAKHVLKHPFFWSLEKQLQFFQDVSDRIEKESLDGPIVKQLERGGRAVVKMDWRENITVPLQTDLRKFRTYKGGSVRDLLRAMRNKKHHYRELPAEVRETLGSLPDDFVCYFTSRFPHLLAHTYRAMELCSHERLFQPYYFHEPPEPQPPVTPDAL
Below, each entry is listed with its recorded IC50.
QUANTITY: IC50 (nM)

* O=S(=O)(Cc1ccccc1)Nc1c(F)cc(Oc2ncccc2-c2ccnc(N[C@H]3CCCNC3)n2)c(F)c1F | 4.5
* Cc1ccc2c(Oc3ncccc3-c3ccnc(N[C@H]4CCCNC4)n3)c(C)ccc2c1NS(=O)(=O)CCC(F)(F)F | 3.3
* O=S(=O)(Cc1ccccc1)Nc1c(F)cc(Oc2ncccc2-c2ccnc(N[C@@H]3CNC[C@H](F)C3)n2)c(F)c1F | 23
* O=S(=O)(Cc1ccccc1)Nc1c(F)cc(Oc2ncccc2-c2ccnc(N[C@@H]3CNC[C@@H](F)C3)n2)c(F)c1F | 4.3
* CCCS(=O)(=O)Nc1cccc2c(Oc3ncccc3-c3ccnc(N[C@H]4CCCNC4)n3)c(C)ccc12 | 6.3
* Cc1ccc2c(NS(=O)(=O)c3ccccc3Cl)cccc2c1Oc1ncccc1-c1ccnc(N[C@@H]2CNCC(F)(F)C2)n1 | 250
* Cc1ccc2c(NS(=O)(=O)C3CCCC3)cccc2c1Oc1ncccc1-c1ccnc(N[C@H]2CCCNC2)n1 | 13
* Cc1ccc2c(NS(=O)(=O)c3ccccc3Cl)cccc2c1Oc1ncccc1-c1ccnc(N[C@H]2CCCNC2)n1 | 9.2
* C[C@@]1(F)CNC[C@@H](Nc2nccc(-c3cccnc3Oc3cc(F)c(NS(=O)(=O)Cc4ccccc4)c(F)c3F)n2)C1 | 7.4
